Values compiled from patent US20170066831A1.

Biological target: T1, human ST2L extracellular domain with C-terminal His6 tag (human, UniProt Q01638 19-328)
T1 construct: also called huST2L-ECD; ST2L-ECD
T1 sequence: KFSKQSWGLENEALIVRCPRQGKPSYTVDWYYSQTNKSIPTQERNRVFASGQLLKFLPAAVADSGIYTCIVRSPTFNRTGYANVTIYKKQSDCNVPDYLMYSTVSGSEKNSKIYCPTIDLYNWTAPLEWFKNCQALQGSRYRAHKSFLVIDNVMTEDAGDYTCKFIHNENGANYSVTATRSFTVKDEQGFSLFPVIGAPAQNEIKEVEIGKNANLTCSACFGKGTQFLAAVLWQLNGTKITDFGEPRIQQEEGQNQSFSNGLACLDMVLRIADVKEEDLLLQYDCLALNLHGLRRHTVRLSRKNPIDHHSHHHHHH
Experiment: SPR, mAb captured, ST2L-ECD in solution
kon by entry:
Express it in M⁻¹ s⁻¹; write the number only.

STLM222 (antibody, V domains shown, frameworks VH3-23 / Vk-L6) VH: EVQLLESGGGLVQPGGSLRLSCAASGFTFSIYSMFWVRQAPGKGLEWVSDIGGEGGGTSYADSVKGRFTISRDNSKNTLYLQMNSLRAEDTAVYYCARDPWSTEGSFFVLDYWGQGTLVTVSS VL: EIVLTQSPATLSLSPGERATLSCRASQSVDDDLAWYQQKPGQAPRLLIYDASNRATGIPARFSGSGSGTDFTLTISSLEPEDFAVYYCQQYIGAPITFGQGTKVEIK	8.22e+06

Let's switch to this binder now.
Value lookup for kon; key = STLM215 (antibody, V domains shown, frameworks VH3-23 / Vk-L6) VH: EVQLLESGGGLVQPGGSLRLSCAASGFTFSSYDMFWVRQAPGKGLEWVSAIAGEGGRTYYADSVKGRFTISRDNSKNTLYLQMNSLRAEDTAVYYCARDPWSTEGSFFVLDYWGQGTLVTVSS VL: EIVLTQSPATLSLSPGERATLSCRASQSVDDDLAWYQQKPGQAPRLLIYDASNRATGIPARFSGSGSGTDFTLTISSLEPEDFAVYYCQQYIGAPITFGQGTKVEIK 6.91e+06
